Where do the numbers come from? From ChEMBL document CHEMBL5058577.

- Test system: U2OS
- Assay Method Text: Multiplex assay against U2OS
- Assay type: toxicity, cell-based
- Measurement Setup: human, 12 h, 10 µM, compound concentration 10 uM, replicate 1
In this section we review reported Population Membrane Permeable-Phenotype (%) values for a set of compounds.
Recorded Metric: Population Membrane Permeable-Phenotype (%)

>  <Compound>
O=S(=O)(c1ccccc1)c1cnc2c(N3CCNCC3)cccc2c1 [INTEPIRDINE]

>  <Experimental Value>
23

$$$$
>  <Compound>
O=C(NCC(=O)N1CC[C@H](N[C@H]2CC[C@@](O)(c3ccc(-c4ncccn4)cn3)CC2)C1)c1cccc(C(F)(F)F)c1

>  <Experimental Value>
15

$$$$
>  <Compound>
O=C(NCCO)c1cccc(-c2cc(Nc3ccc(OC(F)(F)F)cc3)ncn2)c1

>  <Experimental Value>
9

$$$$
>  <Compound>
CC(=O)NCCc1c(Cc2ccccc2)[nH]c2ccccc12

>  <Experimental Value>
8

$$$$
>  <Compound>
CCCn1c(=O)c2[nH]c(C3CCCC3)nc2n(CCC)c1=O

>  <Experimental Value>
5

$$$$
>  <Compound>
Cc1ccc(C(C)(O)c2nc3ccccc3s2)c(C)c1 (centres undefined)

>  <Experimental Value>
9

$$$$
>  <Compound>
Cl.Clc1ccc2nsnc2c1NC1=NCCN1 [TIZANIDINE HYDROCHLORIDE]

>  <Experimental Value>
7

$$$$
>  <Compound>
Oc1c(CN2CCN(c3ccccn3)CC2)cc(Cl)c2cccnc12

>  <Experimental Value>
12

$$$$
>  <Compound>
Cc1ccc(/C(=C\CN2CCCC2)c2ccccn2)cc1

>  <Experimental Value>
29

$$$$
>  <Compound>
COc1ccc2c(c1)C(C(=O)N(Cc1ccc(N(C)C)cc1)c1ccc(C(C)C)cc1)CCC2.Cl (centres undefined)

>  <Experimental Value>
73

$$$$
>  <Compound>
CC1(COc2ccc3c(c2)ncn3-c2ccc3cccc(N4CCC(N)CC4)c3n2)COC1

>  <Experimental Value>
76

$$$$
>  <Compound>
C[C@H]1[C@H]2CC[C@H]3[C@@H]4CC=C5C[C@@H](N(C)C)CC[C@]5(C)[C@H]4CC[C@]23CN1C

>  <Experimental Value>
5

$$$$
>  <Compound>
CC(C)(C)c1ccc(S(=O)(=O)Nc2ccc(Cl)cc2C(=O)c2cc[n+]([O-])cc2)cc1

>  <Experimental Value>
3

$$$$
>  <Compound>
CCNC1(C(N)=O)CCN(c2ncnc3c2nc(-c2ccccc2Cl)n3-c2ccc(Cl)cc2)CC1

>  <Experimental Value>
81

$$$$
>  <Compound>
N#Cc1c(N)nc(SCc2csc(-c3ccc(Cl)cc3)n2)c(C#N)c1-c1ccc(OCCO)cc1

>  <Experimental Value>
70

$$$$
>  <Compound>
CC[C@H]1OC(=O)[C@H](C)[C@@H](O[C@H]2C[C@@](C)(OC)[C@@H](O)[C@H](C)O2)[C@H](C)[C@@H](O[C@@H]2O[C@H](C)C[C@H](N(C)C)[C@H]2O)[C@@]2(C)CC(C)=C(O2)[C@H](C)[C@@H](O)[C@]1(C)O

>  <Experimental Value>
82

$$$$
>  <Compound>
CCOc1c2c(c(OCC)c3ncccc13)CN(c1ccc(CS(=O)(=O)NC(=O)Cc3ccccc3OC)cc1C)C2=O

>  <Experimental Value>
5

$$$$
>  <Compound>
N[C@@]1(C(=O)O)CO[C@H]2[C@H](C(=O)O)[C@H]21

>  <Experimental Value>
8

$$$$
>  <Compound>
O=C(O)Cc1ccccc1Nc1c(Cl)cccc1Cl

>  <Experimental Value>
8

$$$$
>  <Compound>
CN(C)c1ccnc2sc3c(=O)n(N4CCCCCC4)cnc3c12

>  <Experimental Value>
30

$$$$
>  <Compound>
CN1CCN2c3ncccc3Cc3ccccc3C2C1 (centres undefined)

>  <Experimental Value>
6

$$$$
>  <Compound>
CN(C)CCCc1cc(C(=O)Nc2ccc(-c3ccncc3)cc2)ccc1O.Cl.Cl

>  <Experimental Value>
7

$$$$
>  <Compound>
COc1c(C)cc(NC(=O)c2nn(Cc3ccc(F)cc3)c3c2CN(C(=O)c2ccc[nH]2)C[C@]3(C)C(N)=O)cc1C

>  <Experimental Value>
77

$$$$
>  <Compound>
COc1cc(NC(=O)CCN2CCC(OC(=O)Nc3ccccc3-c3ccccc3)CC2)c(Cl)cc1CNC[C@H](O)c1ccc(O)c2[nH]c(=O)ccc12

>  <Experimental Value>
60

$$$$
>  <Compound>
COc1cc(C(=O)N(CCCc2ccccc2)Cc2ccc(CC(=O)O)cc2)cc(OC)c1C

>  <Experimental Value>
5

$$$$
>  <Compound>
Cc1nc2ccc(Oc3ccc(F)cc3)cc2c(=O)n1C[C@H]1CCCN(C(C)C)C1.Cl

>  <Experimental Value>
58

$$$$
>  <Compound>
CN1CCN(c2nc3cc(C(F)(F)F)ccc3n3cccc23)CC1.O=C(O)/C=C\C(=O)O.O=C(O)/C=C\C(=O)O

>  <Experimental Value>
18

$$$$
>  <Compound>
CCCC(CCC)C(=O)O

>  <Experimental Value>
6

$$$$
>  <Compound>
O=C(O)c1cc2ccccc2c(Cc2c(O)c(C(=O)O)cc3ccccc23)c1O

>  <Experimental Value>
6

$$$$
>  <Compound>
CNC[C@H](O)c1ccc(O)c(O)c1 [EPINEPHRINE]

>  <Experimental Value>
7

$$$$
>  <Compound>
Cc1ccc(F)cc1C(=O)Nc1ccc(C(=O)N2Cc3cccn3Cc3ccccc32)c(Cl)c1

>  <Experimental Value>
79

$$$$
>  <Compound>
C[C@H](NC(=O)c1c(C(F)F)nn(C)c1Oc1cccc(C(F)(F)F)c1)c1ccc(C(=O)O)cc1

>  <Experimental Value>
7

$$$$
>  <Compound>
C[C@@H]1C[C@H]2[C@@H]3CCC4=CC(=O)C=C[C@]4(C)[C@@]3(F)[C@@H](O)C[C@]2(C)[C@@]1(O)C(=O)CO

>  <Experimental Value>
6

$$$$
>  <Compound>
c1cc(OCCCN2CCCCC2)ccc1CN1CCCCC1

>  <Experimental Value>
5

$$$$
